Molecular target: T1, full-length human Nectin-4 on cells (human, UniProt Q96NY8 32-510)
T1 construct: the cell is named under assay; also called CHO-Nectin-4 cells; Nectin-4-CHO
T1 sequence: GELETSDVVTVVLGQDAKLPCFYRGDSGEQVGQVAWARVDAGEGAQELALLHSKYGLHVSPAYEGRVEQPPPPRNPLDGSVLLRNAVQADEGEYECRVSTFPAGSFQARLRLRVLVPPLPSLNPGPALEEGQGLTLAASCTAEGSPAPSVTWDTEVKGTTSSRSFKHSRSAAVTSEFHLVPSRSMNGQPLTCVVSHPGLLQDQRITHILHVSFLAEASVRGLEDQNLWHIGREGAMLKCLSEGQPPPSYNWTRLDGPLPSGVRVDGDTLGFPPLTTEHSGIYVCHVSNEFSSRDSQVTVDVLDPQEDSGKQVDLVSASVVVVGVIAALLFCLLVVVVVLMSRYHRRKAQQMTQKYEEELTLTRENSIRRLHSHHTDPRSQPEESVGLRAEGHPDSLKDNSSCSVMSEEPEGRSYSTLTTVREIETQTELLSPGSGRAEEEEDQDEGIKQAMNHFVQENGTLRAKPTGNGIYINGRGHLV
Assay: flow cytometry, SKBR3 cells (endogenous Nectin-4)
Please respond with reported EC50 for every item in the list.
Provide the reading as a plain figure in nM.

Report measured EC50; entry is N4_mAb 3 (antibody, human IgG1, V domains shown, Tested as chimera (human IgG1/kappa constants); not shown: human IgG1 constant region (Uniprot P01857); human Kappa light chain constant region (UniProt P01834)) VH: EVQLQQSGAELVKPGASVKLSCTVSGFNIKDTYMHWVKQRPEQGLEWIGRIDPANGNTKYDPKFQGKATIIADKASNTAYLQLSSLTSEDAAVYYCAHYYGSSYFAMDCWGQGTSVTVSS VL: DIVMTQSHKFMSTSVGDRVSITCKASQDVSTAVAWYQQKPGQSPKLLIYWASTRHTGVPDRFTGSGSGTDYTLTISSVQTEDLALYYCQQHYSTPLTFGAGTKLELK
45

Report measured EC50; entry is N4_mAb 5 (antibody, human IgG1, V domains shown, Tested as chimera (human IgG1/kappa constants); not shown: human IgG1 constant region (Uniprot P01857); human Kappa light chain constant region (UniProt P01834)) VH: EVQLQQSGPDLVKPGASVKISCKASGYSFTGHYMHWVKQSHGKSLEWIGRVNPNNGGSSYNQKFKDKAILTVDKSSTTAYMELRSLTSEDSAVYYCARDPLGGSYGFAYWGQGTLVTVSA VL: DIVLTQSPASLAVSLGQRATISCRASQSVTTSSYSYMHWYQQKPGQPPKLLIKYASNLESGVPARFSGSGSGTDFTLNIHPVEEEDTATYYCQHSWEIPYTFGGGTKLEMK
0.52
